# TARGET: UniProt:Q8ILY1
# Sequence (Q8ILY1 entry or part of it): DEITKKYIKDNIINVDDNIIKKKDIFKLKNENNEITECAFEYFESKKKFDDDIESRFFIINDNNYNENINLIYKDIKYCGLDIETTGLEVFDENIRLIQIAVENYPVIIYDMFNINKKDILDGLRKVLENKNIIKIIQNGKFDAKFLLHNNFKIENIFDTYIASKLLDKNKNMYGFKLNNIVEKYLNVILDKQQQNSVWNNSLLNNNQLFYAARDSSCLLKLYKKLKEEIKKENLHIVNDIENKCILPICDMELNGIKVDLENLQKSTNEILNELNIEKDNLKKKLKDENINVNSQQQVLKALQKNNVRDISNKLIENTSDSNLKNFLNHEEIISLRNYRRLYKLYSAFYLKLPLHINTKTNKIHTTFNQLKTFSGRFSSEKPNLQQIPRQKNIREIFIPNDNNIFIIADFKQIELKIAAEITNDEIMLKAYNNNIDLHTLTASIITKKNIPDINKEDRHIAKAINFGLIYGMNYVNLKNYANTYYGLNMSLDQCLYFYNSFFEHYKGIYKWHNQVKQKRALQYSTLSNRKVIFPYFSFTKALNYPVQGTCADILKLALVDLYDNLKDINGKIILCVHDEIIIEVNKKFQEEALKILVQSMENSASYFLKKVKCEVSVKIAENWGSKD
# ASSAY NOTES: Fluorescence-based high-throughput DNA polymerase assay (molecular beacon), primary screen and dose-response
# Assay type: biochemical
# TEST SETTINGS: DRC-1; read at 10'; concentration 10
// values below are reported % inhibition Apo pol 10' 10

- MOLECULE: "Cc1cccc(-c2noc(C(=O)NNC(=O)C(Cl)(Cl)Cl)n2)c1"
  UNIT NAME: "%"
  % inhibition Apo pol 10' 10: 14.6387
- MOLECULE: "Cc1ccc(N2CCC(NC(=O)Cc3cccs3)C2=O)cc1C (stereo not shown)"
  UNIT NAME: "%"
  % inhibition Apo pol 10' 10: 22.9359
- MOLECULE: "O=C(c1ccccc1)N1CCc2c(nc3cc(-c4ccccc4)[nH]n3c2=O)C1"
  UNIT NAME: "%"
  % inhibition Apo pol 10' 10: 54.0092
- MOLECULE: "N#Cc1c(O)nc(N2CCCCC2)nc1-c1ccc2c(c1)OCO2"
  UNIT NAME: "%"
  % inhibition Apo pol 10' 10: 53.7038
